systemUnderTest: TYK2-JH2 (aa 575-869, in-house) protein (Homo sapiens)
Construct: TYK2-JH2 (aa 575-869, in-house) protein; made in house
testName: TYK2-JH2 biochemical assay (HTRF probe displacement)
Format: binding
assayContext: Biochemical assay; read-out: TYK2-JH2 IC50
attributeMeasured: IC50 (nM)

CC(=O)Nc1cc(Nc2cc(O[C@H]3C[C@H](O)C3)cc(S(C)(=O)=O)n2)c(-c2ccc(C(C)(C)O)cn2)cn1: 0.017
COc1cc(Nc2cc(NC(C)=O)ncc2-c2ccn(C)n2)nc(S(C)(=O)=O)c1: 0.017
CC(=O)Nc1cc(Nc2cc(C3CCOC3)cc(S(C)(=O)=O)n2)c(-c2ccc3c(n2)OCC(C)(C)O3)cn1 (stereo not shown): 0.031

A: CC(=O)Nc1cc(Nc2cccc(S(C)(=O)=O)n2)c(-c2ccc(N3CCOCC3=O)cn2)cn1
B: CC(=O)Nc1cc(Nc2cncc(S(C)(=O)=O)n2)c(-c2ccc(N3C[C@@H](C)O[C@@H](C)C3)cn2)cn1
C: CC(=O)Nc1cc(Nc2cc(O[C@H]3C[C@H](O)C3)cc(S(C)(=O)=O)c2)c(-c2ccn(C)n2)cn1
Write the entries in order, lowest recorded IC50 first. Reply with the labels, ordered as the question asks.
B, C, A

---

systemUnderTest: TYK2-JH2 (aa 575-869, in-house) protein (Homo sapiens, UniProt P29597)
Construct: TYK2-JH2 (aa 575-869, in-house) protein; made in house
Sequence (P29597 575-869): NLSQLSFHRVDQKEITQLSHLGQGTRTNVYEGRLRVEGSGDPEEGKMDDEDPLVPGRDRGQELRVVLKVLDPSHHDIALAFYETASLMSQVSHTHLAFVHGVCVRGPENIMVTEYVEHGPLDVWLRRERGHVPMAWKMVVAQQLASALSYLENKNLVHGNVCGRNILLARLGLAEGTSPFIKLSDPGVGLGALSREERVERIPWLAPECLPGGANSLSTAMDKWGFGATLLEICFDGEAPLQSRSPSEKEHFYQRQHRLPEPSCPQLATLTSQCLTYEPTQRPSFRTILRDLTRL
testName: TYK2-JH2 biochemical assay (HTRF probe displacement)
Assay type: binding
assayContext: Biochemical assay; read-out: TYK2-JH2 IC50
pIC50: −log10 of the molar value.
attributeMeasured: pIC50

Look over these answered cases.
CC(=O)Nc1cc(Nc2cc(C)cc(S(C)(=O)=O)c2)c(-c2ccn(C)n2)cn1: 10.14
CC(=O)Nc1cc(Nc2cc(C)cc(S(C)(=O)=O)n2)c(-c2ccc(OC(C)C)nn2)cn1: 10.38

A: CC(=O)Nc1cc(Nc2cc(OC(C)C)cc(S(C)(=O)=O)n2)c(-c2ccc3nccn3n2)cn1
B: CC(=O)Nc1cc(Nc2cccc(S(C)(=O)=O)n2)c(-c2ccc(N3CCOC(C)(C)C3)cn2)cn1
Could you please tell me which of these two has the higher pIC50: A or B ? Respond using the label that marks the chosen record.
B
(B: 10.47, A: 10.19)

---

systemUnderTest: TYK2-JH2 (aa 575-869, in-house) protein (Homo sapiens, UniProt P29597)
Construct: TYK2-JH2 (aa 575-869, in-house) protein; made in house
testName: TYK2-JH2 biochemical assay (HTRF probe displacement)
Assay type: binding
assayContext: Biochemical assay; read-out: TYK2-JH2 IC50
attributeMeasured: IC50 (nM)

Recorded IC50, per entry:
COCc1ccc(-c2cnc(NC(C)=O)cc2Nc2cccc(S(C)(=O)=O)c2)nc1 [Example E1]: 0.022
CC(=O)Nc1cc(Nc2cc(OC(F)(F)F)cc(S(C)(=O)=O)c2)c(-c2ccc(C(C)(C)O)cn2)cn1 [Example H18]: 0.032
CC(=O)Nc1cc(Nc2cc(OC(C)C)cc(S(C)(=O)=O)n2)c(-c2ccc3c(n2)OCO3)cn1 [Example Q2]: 0.021

A: COC1CCN(c2cc(Nc3cc(NC(C)=O)ncc3-c3ccc4c(n3)OCC(C)(C)O4)nc(S(C)(=O)=O)c2)CC1 [Example Q52]
B: CC(=O)Nc1cc(Nc2cc(OCC3CC3)cc(S(C)(=O)=O)n2)c(-c2ccn(C)n2)cn1 [Example J3]
Form field 'greater IC50' accepts A or B ; which applies? Write the label of whichever entry you select.
A
(A: 0.038 nM, B: 0.026 nM)

a: CC(=O)Nc1cc(Nc2cc(OCCO)cc(S(C)(=O)=O)c2)c(-c2ccc(C(F)(F)F)cn2)cn1 [Example F7]
b: COCCOc1ccc(-c2cnc(NC(C)=O)cc2Nc2cc(OC(C)C)cc(S(C)(=O)=O)n2)nc1 [Example D6]
Endpoint returns the identifier whose IC50 is numerically larger, either a or b . Answer by stating the label of the chosen item.
a
(a: 0.085 nM, b: 0.025 nM)

The origin of these recorded values is patent US20240043435A1.
